These data points were gathered from patent US20170298096A1.

Molecular target: T1, His-tagged P3028 peptide (PGE73) (human)
T1 construct: albumin-derived peptide, in solution at 0.5 ug/mL; not shown: His-tag
T1 peptide: VFDEFKPLVEEPQNLIK
Assay: PEPSCAN ELISA, peptide on card
Output Fulfilled for records whose RAMPO Score is lower than 400, Not fulfilled for records at or above 400.

Task item: Decide: RAMPO Score of KKLDTFFVKLSVFTER [SEQ ID NO: 359 KKLDTFFVKLSVFTER] strictly below 400?
Reply: Not fulfilled

Task item: Decide: RAMPO Score of KKLDTFFVKLSIFTER [SEQ ID NO: 352 KKLDTFFVKLSIFTER] strictly below 400?
Reply: Not fulfilled
